test: wn = mass fraction of the nth substance listed; settings: 273.15 K; 101 kPa; Liquid; controlled-strain rheometer (ARES-RFS, TA Instruments); w1 = 0.2
Quantity Name: viscosity (mPa·s)

- Compound: "O=C[C@H](O)[C@@H](O)[C@@H](O)[C@H](O)CO [(+)-galactose] + O"
  Display Unit: "mPa·s"
  Endpoint Result: 4.27
- Compound: "OC[C@H]1O[C@@](CO)(O[C@H]2O[C@H](CO)[C@@H](O)[C@H](O)[C@H]2O)[C@@H](O)[C@@H]1O [D-sucrose] + O"
  Display Unit: "mPa·s"
  Endpoint Result: 4.42
- Compound: "O=C[C@H](O)[C@@H](O)[C@H](O)[C@H](O)CO [D-glucose] + O"
  Display Unit: "mPa·s"
  Endpoint Result: 4.3
- Compound: "O=C(CO)[C@@H](O)[C@H](O)[C@H](O)CO [D-fructose] + O"
  Display Unit: "mPa·s"
  Endpoint Result: 4.2

---

experiment: wn = mass fraction of the nth substance listed; conditions: 293.15 K; 101 kPa; Liquid; controlled-strain rheometer (ARES-RFS, TA Instruments); w1 = 0.2
Quantity Name: viscosity (mPa·s)

- Compound: "O=C(CO)[C@@H](O)[C@H](O)[C@H](O)CO [D-fructose] + O"
  Display Unit: "mPa·s"
  viscosity: 2.092
- Compound: "O=C[C@H](O)[C@@H](O)[C@H](O)[C@H](O)CO [D-glucose] + O"
  Display Unit: "mPa·s"
  viscosity: 2.13
- Compound: "OC[C@H]1O[C@@](CO)(O[C@H]2O[C@H](CO)[C@@H](O)[C@H](O)[C@H]2O)[C@@H](O)[C@@H]1O [D-sucrose] + O"
  Display Unit: "mPa·s"
  viscosity: 2.38
- Compound: "O=C[C@H](O)[C@@H](O)[C@@H](O)[C@H](O)CO [(+)-galactose] + O"
  Display Unit: "mPa·s"
  viscosity: 2.1

---

test: wn = mass fraction of the nth substance listed; settings: 293.15 K; 101 kPa; Liquid; controlled-strain rheometer (ARES-RFS, TA Instruments); w1 = 0.3
Quantity Name: viscosity (mPa·s)

- Compound: "O=C(CO)[C@@H](O)[C@H](O)[C@H](O)CO [D-fructose] + O"
  Quantity Name: "viscosity"
  Endpoint Result: 3.07
- Compound: "OC[C@H]1O[C@@](CO)(O[C@H]2O[C@H](CO)[C@@H](O)[C@H](O)[C@H]2O)[C@@H](O)[C@@H]1O [D-sucrose] + O"
  Quantity Name: "viscosity"
  Endpoint Result: 3.46
- Compound: "O=C[C@H](O)[C@@H](O)[C@H](O)[C@H](O)CO [D-glucose] + O"
  Quantity Name: "viscosity"
  Endpoint Result: 3.46
- Compound: "O=C[C@H](O)[C@@H](O)[C@@H](O)[C@H](O)CO [(+)-galactose] + O"
  Quantity Name: "viscosity"
  Endpoint Result: 3.27

---

assay: wn = mass fraction of the nth substance listed; settings: 283.15 K; 101 kPa; Liquid; controlled-strain rheometer (ARES-RFS, TA Instruments); w1 = 0.1
Quantity Name: viscosity (mPa·s)

- Compound: "O=C[C@H](O)[C@@H](O)[C@@H](O)[C@H](O)CO [(+)-galactose] + O"
  viscosity [mPa·s]: 2.107
- Compound: "O=C[C@H](O)[C@@H](O)[C@H](O)[C@H](O)CO [D-glucose] + O"
  viscosity [mPa·s]: 2.02
- Compound: "OC[C@H]1O[C@@](CO)(O[C@H]2O[C@H](CO)[C@@H](O)[C@H](O)[C@H]2O)[C@@H](O)[C@@H]1O [D-sucrose] + O"
  viscosity [mPa·s]: 2.02
- Compound: "O=C(CO)[C@@H](O)[C@H](O)[C@H](O)CO [D-fructose] + O"
  viscosity [mPa·s]: 1.991
